System: BT-549 breast
protocol_summary: NCI tumour cell line growth inhibition, 48 h
Where a SMILES comes first, the peptide text is derived from it. [ ]: non-standard residue; d: D form. The star is where a group is joined. ξ: configuration not given here. X6 = FC(F)(F)c1cc(NC(=S)*)cc(C(F)(F)F)c1; ξF = NC(Cc1ccccc1)C(=O)O
Recorded TGI for the following compounds
# value in µM; strip the unit string

Examples with answers:
# compound, display_unit, TGI
data = [
    ("CC(C)CCC[C@@H](C)[C@H]1CC[C@H]2[C@@H]3CC=C4C[C@@H](C(C(=O)O)C(=O)O)CC[C@]4(C)[C@H]3CC[C@]12C", "µM", 2.21),
    ("COC(=O)[C@@H](NC(=O)CNC(=O)[C@H]1CCCN1C(=O)C(Cc1ccccc1)NC(=S)Nc1cc(C(F)(F)F)cc(C(F)(F)F)c1)C(C)C (stereo partly specified) (X6-[ξF][dP]GV-OMe)", "µM", 3.78),
    ("Clc1ccc2c(NCCCCNc3nc(N4CCCCC4)nc4ccccc34)ccnc2c1", "µM", 4.1),
    ("CC(=O)O[C@H]1C(=O)[C@]2(C)[C@@H](OC(=O)OCCC(O)CO)C[C@H]3OC[C@@]3(OC(C)=O)[C@H]2[C@H](OC(=O)c2ccccc2)[C@]2(O)C[C@H](OC(=O)[C@H](O)[C@@H](NC(=O)c3ccccc3)c3ccccc3)C(C)=C1C2(C)C (stereo partly specified)", "µM", 15.9),
    ("COc1cc(-c2nn(-c3ccc(NC(=O)c4ccc(Cl)c(C(F)(F)F)c4)cc3)cc2-c2ccncc2)ccc1Cl", "µM", 32.5),
]

Now look at this one.
// TGI value for `FC(F)(F)c1cc(Cl)cnc1N/N=C(/c1ccccc1)c1ccccn1` : 36.4

---

Recorded TGI for the following compounds
Test system: SF-539 CNS
protocol_summary: NCI tumour cell line growth inhibition, 48 h

Examples with answers:
# compound, experimental_value
data = [
    ("O=C1/C(=C/c2ccc(O)cc2)CC/C1=C\\c1ccc(O)cc1", "> 100 µM"),
    ("CC1C=C(CCCCCCCCCCCC[C@@H](O)[C@@H]2CC[C@@H]([C@@H]3CC[C@@H](C(O)CCCCCCCCCCCCC4=C[C@H](C)OC4=O)O3)O2)C(=O)O1 (some centres undefined)", "52.6 µM"),
    ("Nc1ccccc1SC(C[N+](=O)[O-])c1ccc2c(c1)OCO2 (centres undefined)", "4.98 µM"),
    ("Cc1cc(=O)[nH]c(NN2C(Cl)C(=O)C2c2ccccc2O)n1 (centres undefined)", "> 58.6 µM"),
]

// TGI value for CCCNC1=C2CC(C)CC(OC)[C@@H](O)[C@H](C)/C=C(\C)C(OC(N)=O)C(OC)/C=C\C=C(/C)C(=O)NC(=CC1=O)C2=O (some centres undefined) : 18.3 µM

// TGI value for `COc1c(C)c(C/C=C(\C)CCCCO[Si](c2ccccc2)(c2ccccc2)C(C)(C)C)c(OC)c(OC)c1OC` : > 46.4 µM

// TGI value for `CC[C@@]1(C[C@H]2C[C@@]3(C(=O)OC)c4[nH]c5ccccc5c4CCN3C2=O)COC2(CCCCC2)O1` : > 100 µM

// TGI value for CCOC(=O)N1CCC2(CC1)C[C@](C)(C(C)=O)C(C)O2 (some centres undefined) : > 100 µM

// TGI value for `O=C(CCC(=O)c1ccc(Cl)cc1)NO` : > 100 µM

---

Tested on: SK-MEL-2 melanoma
protocol_summary: NCI tumour cell line growth inhibition, 48 h
experimental_endpoint: TGI (µM)
# value in µM; strip the unit string

Examples with answers:
# compound_structure_string, TGI [µM]
measured = [
    ("O=C(N/C(=C\\c1ccc(/C=C(\\NC(=O)c2ccccc2)c2nc3cc([N+](=O)[O-])ccc3[nH]2)cc1)c1nc2cc([N+](=O)[O-])ccc2[nH]1)c1ccccc1", 83.3),
    ("O=[N+]([O-])/C(C(Cl)=C(Cl)Cl)=C(\\SCc1ccccc1)N1CCCCC1", 55),
    ("Cc1cccc(/C=N/NC(=S)Nc2ccccc2)n1", 36),
]

// TGI value for `O=S(=O)(NC1=NCCN1C(=S)SN1CCn2c1nsc2=S)c1ccc(OC(F)(F)F)cc1` : 21

---

System: SK-MEL-28 melanoma
protocol_summary: NCI tumour cell line growth inhibition, 48 h
Where a SMILES comes first, the peptide text is derived from it. [ ]: non-standard residue; d: D form. The star is where a group is joined. ξ: configuration not given here. X6 = FC(F)(F)c1cc(NC(=S)*)cc(C(F)(F)F)c1; ξF = NC(Cc1ccccc1)C(=O)O
experimental_endpoint: GI50

# compound, system, experimental_value
records = [
    ("COc1ccc2c(C3=C(c4cn(C)c5ccccc45)C(=O)NC3=O)cn(C)c2c1", "SK-MEL-28 melanoma", "0.166 µM"),
    ("Cn1cc(C2=C(c3cn(C)c4ncccc34)C(=O)NC2=O)c2ccccc21", "SK-MEL-28 melanoma", "8.56 µM"),
    ("COC(=O)[C@@H](NC(=O)CNC(=O)[C@H]1CCCN1C(=O)C(Cc1ccccc1)NC(=S)Nc1cc(C(F)(F)F)cc(C(F)(F)F)c1)C(C)C (stereo not given in full) (X6-[ξF][dP]GV-OMe)", "SK-MEL-28 melanoma", "1.84 µM"),
    ("O=C(Nc1ccccc1)NS(=O)(=O)c1ccc(-n2nc3c(c2-c2cccs2)Cc2ccccc2-3)cc1", "SK-MEL-28 melanoma", "50.2 µM"),
]

Now look at this one.
// GI50 value for `COC1=CC(=O)c2nc(-c3ccncc3)[nH]c2C1=O` : > 100 µM

---

System: MALME-3M melanoma
protocol_summary: NCI tumour cell line growth inhibition, 48 h; in the data active = GI50 below about 0.43 µM; inactive = the rest
Valid outcomes are listed here; reply with one: active, inactive

**Query** In this assay, the call recorded for NC(Cc1c[nH]c2c(O)cccc12)C(=O)O (stereo unspecified) was what?
**Result** inactive

**Query** In this assay, the call recorded for O=C(/C=C/C12c3ccccc3C(c3ccccc31)C1C(=O)NC(=O)C12)c1ccncc1 (stereo unspecified) was what?
**Result** inactive

**Query** In this assay, the call recorded for `O=C(Nc1ccccc1OC(F)(F)F)Nc1n[nH]c2ccccc12` was what?
**Result** inactive

**Query** In this assay, the call recorded for `O=C1/C(=C/c2cccc([N+](=O)[O-])c2)COc2ccc(O)cc21` was what?
**Result** inactive

**Query** In this assay, the call recorded for `Clc1ccc2c(NCCCCNc3nc(N4CCCCC4)nc4ccccc34)ccnc2c1` was what?
**Result** inactive

**Query** In this assay, the call recorded for `C=C(CN1CCN(c2ccc(Cl)cc2F)CC1)c1ccc(C(=O)Nc2ccccc2N)cc1` was what?
**Result** inactive

**Query** In this assay, the call recorded for `COC1=CC(c2ccc[nH]2)=N/C1=C\c1[nH]c(C)c(C(=O)OC(C)C)c1C` was what?
**Result** inactive

**Query** In this assay, the call recorded for `CC(C)CCC[C@@H](C)[C@H]1CC[C@H]2[C@@H]3CC=C4C[C@@H](C(C(=O)O)C(=O)O)CC[C@]4(C)[C@H]3CC[C@]12C` was what?
**Result** active

**Query** In this assay, the call recorded for `Cc1ccc(NC2=C(Cl)C(=O)N(Cc3ccccc3)C2=O)cc1O` was what?
**Result** inactive

**Query** In this assay, the call recorded for OCc1ccc(N2CCC2c2ccc(F)cc2)cc1Cl (stereo unspecified) was what?
**Result** inactive

**Query** In this assay, the call recorded for `CC1(C)CCc2c(c3c(c4c(=O)c(O)c(-c5ccc(O)cc5)oc24)OC(C)(C)CC3)O1` was what?
**Result** inactive

---

System: 786-0 renal
protocol_summary: NCI tumour cell line growth inhibition, 48 h
experimental_endpoint: TGI

Examples with answers:
# compound, TGI
data = [
    ("COc1c(C)c(C/C=C(\\C)CCCCO[Si](c2ccccc2)(c2ccccc2)C(C)(C)C)c(OC)c(OC)c1OC", "40.5 µM"),
    ("Cc1cc(I)cc(CN(C)CCCCN2CCCCC2)c1O", "25.4 µM"),
    ("CN/N=C(/Cc1occc(=O)c1O)C(=O)Nc1ccccc1C", "> 100 µM"),
]

// TGI value for `O=C(CCC(=O)c1ccc(Cl)cc1)NO` : > 100 µM

// TGI value for `Clc1cc2nsnc2c(Cl)n1` : 31.2 µM

// TGI value for `CC1(C)CCc2c(c3c(c4c(=O)c(O)c(-c5ccc(O)cc5)oc24)OC(C)(C)CC3)O1` : > 100 µM

---

Tested on: 786-0 renal
protocol_summary: NCI tumour cell line growth inhibition, 48 h
Recorded GI50 for the following compounds

# compound, system, GI50
records = [
    ("COc1cc(-c2nn(-c3ccc(NC(=O)c4ccc(Cl)c(C(F)(F)F)c4)cc3)cc2-c2ccncc2)ccc1Cl", "786-0 renal", "1.2 µM"),
    ("O=C1CC(c2ccc3c(c2)OCO3)Nc2ccccc21 (centres undefined)", "786-0 renal", "8.11 µM"),
    ("CSc1nc2c(c(=O)[nH]1)N=C1c3ccccc3C(=O)C1C(c1ccccc1)N2 (centres undefined)", "786-0 renal", "6.44 µM"),
    ("O=C(Nc1ccccc1)NS(=O)(=O)c1ccc(-n2nc3c(c2-c2cccs2)Cc2ccccc2-3)cc1", "786-0 renal", "17.6 µM"),
    ("CCC(CO)Nc1nc2ccc(Cl)cc2c2ccccc12 (centres undefined)", "786-0 renal", "7.37 µM"),
]

// GI50 value for NC(Cc1c[nH]c2c(O)cccc12)C(=O)O (centres undefined) : > 100 µM

// GI50 value for `C#Cc1ccc(-n2c(/C=C/c3ccc(C(F)(F)F)cc3)nc3ncccc3c2=O)cc1` : 2.06 µM

// GI50 value for `COC1=CC(=O)c2nc(-c3ccncc3)[nH]c2C1=O` : > 100 µM

// GI50 value for `Cc1ccc(C(=O)/C(=C/c2ccc([N+](=O)[O-])cc2)SCc2ccc(Cl)cc2)cc1` : 1.66 µM
